Measurement notes: In vivo pharmacokinetics in male Sprague-Dawley rats
Set-up: species or system rat
Reported conditions: rat, plasma, po, p.o. 3.0 mg/kg per title (dose row prints 10), read-out: Apparent t1/2 (converted)
Assay readout: half-life

[Q] I would be grateful if you could share the reported half-life for [2H]C([2H])([2H])N(C([2H])([2H])[2H])C([2H])([2H])C([2H])([2H])c1c[nH]c2cccc(O)c12 [Compound I-45] .
[A] 2.61 h

----------
UniProt:P28223: reported IC50 for various compounds.

>>> assay_value("[2H]C([2H])([2H])N(C([2H])([2H])[2H])C([2H])([2H])C([2H])([2H])c1c[nH]c2cccc(OP(=O)(O)O)c12 [Compound I-3]")
"500 to 5000 nM"

[Q] I would be grateful if you could share the reported IC50 for [2H]C([2H])([2H])N(C([2H])([2H])[2H])C([2H])([2H])C([2H])([2H])c1c[nH]c2cccc(F)c12 [Compound I-43] .
[A] < 500 nM

[Q] I would be grateful if you could share the reported IC50 for [2H]C([2H])([2H])N(C([2H])([2H])[2H])C([2H])([2H])C([2H])([2H])c1c[nH]c2cccc(OC)c12 [Compound I-44] .
[A] < 500 nM

----------
Measurement notes: In vivo pharmacokinetics in male C57BL/6 mice
Design: species or system mouse
Reported conditions: mouse, plasma, iv, i.v. 1 mg/kg
Assay readout: AUC(0-inf) (ng·h/mL)
A number alone suffices; assume ng·h/mL.

[Q] I would be grateful if you could share the reported AUC(0-inf) for [2H]C([2H])([2H])N(C([2H])([2H])[2H])C([2H])([2H])C([2H])([2H])c1c[nH]c2cccc(O)c12 [Compound I-45] .
[A] 181

----------
Measurement notes: In vivo pharmacokinetics in male C57BL/6 mice
Parameters: species or system mouse
Reported conditions: mouse, plasma, po, p.o. 10 mg/kg, read-out: AUC0-tlast
Assay readout: AUC(0-t)
# answer = value followed by unit

[Q] I would be grateful if you could share the reported AUC(0-t) for [2H]C([2H])([2H])N(C([2H])([2H])[2H])C([2H])([2H])C([2H])([2H])c1c[nH]c2cccc(O)c12 .
[A] 792 ng·h/mL

----------
Measurement notes: In vivo pharmacokinetics in male Sprague-Dawley rats
Design: species or system rat
Reported conditions: rat, plasma, iv, i.v. 0.3 mg/kg, read-out: AUC0-tlast
Assay readout: AUC(0-t) (ng·h/mL)
A number alone suffices; assume ng·h/mL.

[Q] I would be grateful if you could share the reported AUC(0-t) for [2H]C([2H])([2H])N(C([2H])([2H])[2H])C([2H])([2H])C([2H])([2H])c1c[nH]c2cccc(O)c12 [Compound I-45] .
[A] 35.2

----------
Measurement notes: In vivo pharmacokinetics in male Sprague-Dawley rats
Parameters: species or system rat
Reported conditions: rat, plasma, iv, i.v. 0.3 mg/kg
Assay readout: clearance (mL/min/kg)
A number alone suffices; assume mL/min/kg.

[Q] I would be grateful if you could share the reported clearance for [2H]C([2H])([2H])N(C([2H])([2H])[2H])C([2H])([2H])C([2H])([2H])c1c[nH]c2cccc(O)c12 .
[A] 143

The reported measurements were obtained from patent US11427604B2.
